molecular target: T1, human CD38 Fc-fusion aa 45-300 (human, UniProt P28907 45-300); test: SPR (Biacore), Fab format
T1 construct: Expressed in HEK293 behind a human Vkappa leader, which is left out here; also called CD38-Fc fusion protein; CD38 Fc-Fusion protein
readoutType: Kd (nM)
Quick reminder: number only, in nM, skip the unit.

Answered examples (2):
binder | u | Kd
MOR06192 Fab (Fab, V domains shown, Fab format) VH: QVQLVESGGGLVQPGGSLRLSCAASGFTFSSYYMNWVRQAPGKGLEWVSVISPGGEAKSYADSVKGRFTISRDNSKNTLYLQMNSLRAEDTAVYYCARDLPLVYTGFAYWGQGTLVTVSS VL: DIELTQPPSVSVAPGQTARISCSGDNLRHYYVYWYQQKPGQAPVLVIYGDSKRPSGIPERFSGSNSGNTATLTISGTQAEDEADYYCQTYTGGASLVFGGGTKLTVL | nM | 5.01
MOR06201 Fab (Fab, V domains shown, Fab format) VH: QVQLVESGGGLVQPGGSLRLSCAASGFTFSSYYMNWVRQAPGKGLEWVSAISMHGDTTYYADSVKGRFTISRDNSKNTLYLQMNSLRAEDTAVYYCARDLPLVYTGFAYWGQGTLVTVSS VL: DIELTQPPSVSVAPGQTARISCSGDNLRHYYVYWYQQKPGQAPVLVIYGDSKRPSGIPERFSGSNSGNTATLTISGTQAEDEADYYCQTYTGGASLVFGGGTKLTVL | nM | 6.81

# evaluate next
Query string: Give a short answer stating reported Kd for MOR06189 Fab (Fab, V domains shown, Fab format) VH: QVQLVESGGGLVQPGGSLRLSCAASGFTFSSYYMNWVRQAPGKGLEWVSAINMIGNVTNYADSVKGRFTISRDNSKNTLYLQMNSLRAEDTAVYYCARDLPLVYTGFAYWGQGTLVTVSS VL: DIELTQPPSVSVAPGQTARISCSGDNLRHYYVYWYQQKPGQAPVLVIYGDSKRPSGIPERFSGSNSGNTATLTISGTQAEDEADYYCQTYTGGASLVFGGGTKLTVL .
Result string: 4.95
